- assay target: T1, human CD94 (human, UniProt Q13241 1-179)
- T1 construct: whole, on cells; Endogenous CD94 on primary cells (healthy-donor PBMC NK cells, CLPD-NK and T-LGLL patient cells), where it pairs with NKG2A or NKG2C; also called KLRD1; Natural killer cells antigen CD94
- T1 sequence (looked up): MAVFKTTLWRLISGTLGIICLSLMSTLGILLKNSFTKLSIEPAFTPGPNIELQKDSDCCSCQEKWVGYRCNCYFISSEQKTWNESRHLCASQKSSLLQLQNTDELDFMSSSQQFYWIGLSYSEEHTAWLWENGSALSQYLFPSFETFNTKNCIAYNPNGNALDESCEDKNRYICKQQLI
- protocol notes: flow cytometry titration (100 nM to 0.046 nM) on healthy-donor PBMCs, CD3-CD56bright NK cells; column 'Affinity on human NK cells (nM)'
metric name: EC50 (nM)
Use nM as the unit, but write only the number.

Recorded EC50 (binder anti-CD94 antibody ATX-126 (antibody, human IgG1, V domains shown) VH: QVQLQESGGGLVQPGGSLKLSCAASGFTFSSYSMNWVRQAPGKGLEWVSSISTSSNFIYYADSVKGRFTISRDNSKNTLYLQMNSLRAEDTAVYYCVRDMGPFYSFYYMDVWGNGTTVTVSS VL: DIQVTQSPATLSLSPGERATLSCRASQSVSSSYLAWYQQKPGQAPRLLIYGASNRATGIPARFSGSGSGTDFTLTISSLQPEDFATYYCLQHNSYPPTFGGGTKVDIK ): 2.52

Recorded EC50 (binder anti-CD94 antibody ATX-122 (antibody, V domains shown, Detected with an anti-human secondary antibody) VH: QVQLVQSGAEVKKPGASLKVSCKASGYTFTSYGVSWVRQAPGQGLEWVGWISPYNGNTNYAHNLQGRVAMTTDTSTSTAYMELRSLRSDDMAVYYCARDRGRFGELFFDYWGQGTLVTVSS VL: DIVMTQSPSSVSASVGDRVTITCRASQGISNYLAWYQQKPGKAPKLLIYAASSLQSGVPSRFSGSGSGTDFTLTISSLQPEDFATYYCLQHNSYPFTFGPGTKVDIK ): 27
